Sourced from paper PMC10165932

# system.tested: mushroom tyrosinase (Agaricus bisporus)
# Sequence (C7FF04 1-392): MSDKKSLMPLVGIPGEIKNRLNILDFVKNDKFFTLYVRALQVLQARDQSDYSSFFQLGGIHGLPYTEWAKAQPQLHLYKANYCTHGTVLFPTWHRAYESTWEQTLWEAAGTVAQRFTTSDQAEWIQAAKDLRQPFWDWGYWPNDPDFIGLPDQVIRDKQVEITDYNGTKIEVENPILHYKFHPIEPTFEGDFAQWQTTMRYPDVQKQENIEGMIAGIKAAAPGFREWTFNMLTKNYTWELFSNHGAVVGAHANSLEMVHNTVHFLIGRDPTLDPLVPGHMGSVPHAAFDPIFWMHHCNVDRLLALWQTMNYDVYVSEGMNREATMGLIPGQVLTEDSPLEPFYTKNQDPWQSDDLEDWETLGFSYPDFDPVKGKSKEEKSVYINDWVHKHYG
# assay.comment: Tyrosinase inhibition assay (diphenolase activity, L-DOPA substrate)
# Type: biochemical
# conditions: at 250 μM, n = 3; read-out: The maximum percentage of inhibition reached for poor inhibitors
I would appreciate it if you labelled entries rule met when inhibition at 250 µM is 50% or higher, otherwise rule not met.

Example results:
{"compound": "NC(=S)N/N=C/c1ccc(C(=O)N[C@@H](Cc2ccccc2)C(=O)N[C@@H](Cc2ccccc2)C(=O)N[C@@H](Cc2ccc(O)cc2)C(=O)O)cc1", "assigned.class": "rule met"}
{"compound": "CC(C(=O)N[C@@H](Cc1ccccc1)C(=O)N[C@@H](Cc1ccccc1)C(=O)N[C@@H](Cc1ccc(O)cc1)C(=O)O)c1cccc(C(=NNC(N)=S)c2ccccc2)c1 (mixture of isomers)", "assigned.class": "rule not met"}
{"compound": "C/C(=N\\NC(N)=S)c1ccc(C(=O)N[C@@H](Cc2ccccc2)C(=O)N[C@@H](Cc2ccccc2)C(=O)N[C@@H](Cc2ccc(O)cc2)C(=O)O)cc1", "assigned.class": "rule met"}

Kindly review the next compound as well.
Is reported inhibition at 250 µM greater than or equal to 50% here: CC(C(=O)N[C@@H](Cc1ccccc1)C(=O)N[C@@H](Cc1ccc(O)cc1)C(=O)N[C@@H](Cc1ccc(O)cc1)C(=O)O)c1cccc(C(=NNC(N)=S)c2ccccc2)c1 (mixture of isomers) rule not met
